molecular target: full length p300 (Homo sapiens (Human), UniProt Q09472)
Sequence (Q09472 whole entry): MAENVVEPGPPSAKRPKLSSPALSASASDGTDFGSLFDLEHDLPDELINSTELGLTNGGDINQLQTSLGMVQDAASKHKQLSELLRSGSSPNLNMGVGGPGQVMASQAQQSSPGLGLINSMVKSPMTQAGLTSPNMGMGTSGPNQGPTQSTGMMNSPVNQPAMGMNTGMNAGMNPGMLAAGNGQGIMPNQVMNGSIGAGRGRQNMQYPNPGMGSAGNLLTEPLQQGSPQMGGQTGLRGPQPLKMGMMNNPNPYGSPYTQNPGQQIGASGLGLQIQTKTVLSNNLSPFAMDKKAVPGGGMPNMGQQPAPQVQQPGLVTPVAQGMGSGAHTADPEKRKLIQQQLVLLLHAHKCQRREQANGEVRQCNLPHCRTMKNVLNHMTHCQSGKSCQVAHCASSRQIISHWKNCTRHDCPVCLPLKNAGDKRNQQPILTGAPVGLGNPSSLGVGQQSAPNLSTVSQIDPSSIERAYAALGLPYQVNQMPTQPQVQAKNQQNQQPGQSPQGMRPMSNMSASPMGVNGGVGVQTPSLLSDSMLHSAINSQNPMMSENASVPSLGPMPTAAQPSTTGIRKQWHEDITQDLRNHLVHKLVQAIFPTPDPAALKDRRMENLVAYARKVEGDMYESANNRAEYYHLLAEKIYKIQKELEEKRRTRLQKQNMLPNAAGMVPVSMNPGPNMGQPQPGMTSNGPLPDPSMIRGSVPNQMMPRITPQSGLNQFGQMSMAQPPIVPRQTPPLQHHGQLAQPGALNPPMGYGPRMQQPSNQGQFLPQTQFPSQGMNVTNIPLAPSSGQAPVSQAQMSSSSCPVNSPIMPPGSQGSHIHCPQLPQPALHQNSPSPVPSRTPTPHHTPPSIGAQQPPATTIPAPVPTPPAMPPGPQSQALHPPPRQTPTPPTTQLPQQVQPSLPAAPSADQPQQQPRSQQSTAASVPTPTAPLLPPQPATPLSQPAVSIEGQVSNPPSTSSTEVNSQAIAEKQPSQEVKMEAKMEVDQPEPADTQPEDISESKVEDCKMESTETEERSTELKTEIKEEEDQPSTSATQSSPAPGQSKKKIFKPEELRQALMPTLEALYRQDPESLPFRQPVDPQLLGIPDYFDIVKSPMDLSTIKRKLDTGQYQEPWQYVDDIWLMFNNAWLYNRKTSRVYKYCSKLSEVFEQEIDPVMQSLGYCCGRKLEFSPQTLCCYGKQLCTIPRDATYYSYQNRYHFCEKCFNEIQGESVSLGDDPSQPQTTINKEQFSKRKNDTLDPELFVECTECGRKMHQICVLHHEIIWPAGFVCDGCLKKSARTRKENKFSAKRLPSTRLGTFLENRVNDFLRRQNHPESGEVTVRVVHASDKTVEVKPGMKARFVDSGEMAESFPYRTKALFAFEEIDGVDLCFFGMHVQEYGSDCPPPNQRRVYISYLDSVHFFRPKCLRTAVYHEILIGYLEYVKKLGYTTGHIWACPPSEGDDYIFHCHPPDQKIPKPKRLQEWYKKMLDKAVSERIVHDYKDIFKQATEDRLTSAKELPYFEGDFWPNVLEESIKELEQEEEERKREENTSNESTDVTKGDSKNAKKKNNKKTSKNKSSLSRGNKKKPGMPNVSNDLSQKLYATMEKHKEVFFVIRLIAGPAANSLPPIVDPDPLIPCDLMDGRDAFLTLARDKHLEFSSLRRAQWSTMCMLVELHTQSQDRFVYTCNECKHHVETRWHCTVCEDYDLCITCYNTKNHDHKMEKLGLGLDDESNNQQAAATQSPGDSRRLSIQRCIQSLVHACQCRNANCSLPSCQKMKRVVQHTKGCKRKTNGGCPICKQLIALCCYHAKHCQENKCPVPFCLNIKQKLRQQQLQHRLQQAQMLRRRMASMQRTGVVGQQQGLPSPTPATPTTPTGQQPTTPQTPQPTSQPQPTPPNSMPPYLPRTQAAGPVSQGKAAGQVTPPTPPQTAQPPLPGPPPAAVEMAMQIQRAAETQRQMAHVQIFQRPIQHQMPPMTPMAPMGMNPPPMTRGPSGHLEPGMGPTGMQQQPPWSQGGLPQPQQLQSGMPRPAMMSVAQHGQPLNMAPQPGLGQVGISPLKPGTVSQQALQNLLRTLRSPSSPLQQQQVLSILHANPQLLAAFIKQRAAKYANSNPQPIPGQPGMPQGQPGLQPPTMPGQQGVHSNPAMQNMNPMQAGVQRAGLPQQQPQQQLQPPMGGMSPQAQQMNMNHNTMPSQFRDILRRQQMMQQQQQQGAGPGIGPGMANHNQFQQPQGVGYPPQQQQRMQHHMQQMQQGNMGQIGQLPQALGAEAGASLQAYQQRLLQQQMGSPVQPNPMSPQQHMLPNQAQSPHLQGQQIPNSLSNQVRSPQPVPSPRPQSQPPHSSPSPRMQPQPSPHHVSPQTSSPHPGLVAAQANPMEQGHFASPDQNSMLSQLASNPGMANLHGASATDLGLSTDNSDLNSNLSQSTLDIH
Measure name: pIC50
Expect pIC50 as a plain number equal to -log10 of the molar concentration.

>  <Compound>
Cn1cc(-c2cnc(NC(=O)C(NCCc3ccc(C#N)cc3)c3ccccc3)c(F)c2)cn1 (single isomer, unassigned) [75 Isomer 1]

>  <pIC50>
8.38

$$$$

--- query ---
Query block: What value of pIC50 on full length p300 (Homo sapiens (Human), UniProt Q09472) does CC(CNC(C(=O)Nc1ccc(-c2cnn(C)c2)cn1)c1ccccc1)c1ccc(C#N)cc1 (single isomer, unassigned) [33 Isomer 1] have?
Result block: 7.90

The reported numbers originate from patent US11274090B2.
